Origin of values: patent EP0024616A1

- experimentNotes: Minimum solubility in water
- experimentalSetup: water
experimentalReadout: log10 of solubility (log10 of the value in mg/mL)
Please note: log10 values; quantity solubility; unit mg/mL.

Fill blank: measured log10 of solubility of the compound CC(C)(C)C(=O)NCC(O)c1cccc(O)c1 (stereo not shown) [Verbindung 23, reference compound] is ____.
1.00

Fill blank: measured log10 of solubility of the compound CC(=O)NCC(OC(C)=O)c1cccc(O)c1 (stereo not shown) [Verbindung 22, reference compound] is ____.
1.08

Fill blank: measured log10 of solubility of the compound CC(C)(C)C(=O)NCC(OC(=O)C(C)(C)C)c1cccc(O)c1 (stereo not shown) [Verbindung 24, reference compound] is ____.
-1.00

Fill blank: measured log10 of solubility of the compound CC(=O)NCC(O)c1cccc(O)c1 (stereo not shown) [Verbindung 21, reference compound] is ____.
2.00

Fill blank: measured log10 of solubility of the compound CC(C)(C)C(=O)NCC(OC(=O)C(C)(C)C)c1cccc(OC(=O)C(C)(C)C)c1 (stereo not shown) [Verbindung 25, reference compound] is ____.
-1.00

Fill blank: measured log10 of solubility of the compound CCC(C(=O)Oc1cccc(C(O)CN)c1)c1ccccc1 (stereo not shown) is ____.
2.30

Fill blank: measured log10 of solubility of the compound CCCCCCCCCCCC(=O)Oc1cccc(C(O)CN)c1 (stereo not shown) is ____.
2.18

* * *

- Test system: Blutdruck der Katze
- experimentNotes: Blood pressure increasing effect after intraduodenal application in anaesthetised cats
- Type: in vivo, Katzen
- experimentalSetup: Felis catus; 3 mg/kg intraduodenal, aqueous solution, anaesthetised cat; read-out: Systol. Blutdruck (Anstieg)
experimentalReadout: change in vivo at 3 mg/kg (%)
Output spec: scalar in %, unitless text.

Short answer please: change in vivo at 3 mg/kg, Blutdruck der Katze, entry CC(C(=O)Oc1cccc(C(O)CN)c1)c1ccccc1 (stereo not drawn) [Verbindung 16]
38

Short answer please: change in vivo at 3 mg/kg, Blutdruck der Katze, entry CCCCCCC(=O)Oc1cccc(C(O)CN)c1.Cl (stereo not drawn) [Verbindung 12]
70

Short answer please: change in vivo at 3 mg/kg, Blutdruck der Katze, entry Cc1ccccc1C(=O)Oc1cccc(C(O)CN)c1 (stereo not drawn) [Verbindung 19]
26

Short answer please: change in vivo at 3 mg/kg, Blutdruck der Katze, entry CCC(CC)C(=O)Oc1cccc(C(O)CN)c1 (stereo not drawn) [Verbindung 10]
48

Short answer please: change in vivo at 3 mg/kg, Blutdruck der Katze, entry NCC(O)c1cccc(O)c1 (racemic) [Norfenefrin, DL-1-(3'-Hydroxyphenyl)-2-aminoethanol, reference compound]
25

Short answer please: change in vivo at 3 mg/kg, Blutdruck der Katze, entry CCC(C(=O)Oc1cccc(C(O)CN)c1)c1ccccc1 (stereo not drawn) [Verbindung 17]
42

Short answer please: change in vivo at 3 mg/kg, Blutdruck der Katze, entry CCCCCCCCCCCC(=O)Oc1cccc(C(O)CN)c1 (stereo not drawn) [Verbindung 14]
39

Short answer please: change in vivo at 3 mg/kg, Blutdruck der Katze, entry NCC(O)c1cccc(OC(=O)Cc2ccccc2)c1 (stereo not drawn) [Verbindung 15]
50

Short answer please: change in vivo at 3 mg/kg, Blutdruck der Katze, entry CC(=O)Oc1cccc(C(O)CN)c1.Cl (stereo not drawn) [Verbindung 1]
35

Short answer please: change in vivo at 3 mg/kg, Blutdruck der Katze, entry CC(C)(C)C(=O)Oc1cccc(C(O)CN)c1.Cl (stereo not drawn) [Verbindung 7]
37

Short answer please: change in vivo at 3 mg/kg, Blutdruck der Katze, entry Cc1ccc(C(=O)Oc2cccc(C(O)CN)c2)cc1 (stereo not drawn) [Verbindung 20]
122

Short answer please: change in vivo at 3 mg/kg, Blutdruck der Katze, entry CCCCC(=O)Oc1cccc(C(O)CN)c1 (stereo not drawn) [Verbindung 5]
42
